Values from ChEMBL document CHEMBL1833831

Assay explanation: Drug level in human plasma after 6 hrs
Assay type: ADME, cell-free
Endpoint label: concentration at 6 h (nM)
// return numeric value only (unit: nM, not printed)

Given O=c1oc2cc(O)ccc2c2ccc(O)cc12 , state its recorded concentration at 6 h.
110

* * *

Assay explanation: Drug level in human plasma after 0.5 hrs
Type: ADME, cell-free
Endpoint label: concentration at 0.5 h (nM)
// return numeric value only (unit: nM, not printed)

Given O=c1oc2cc(O)ccc2c2ccc(O)cc12 , state its recorded concentration at 0.5 h.
40
